- experimental.protocol: Amount of fluticasone solubilized in aqueous TPGS composition, by order of addition/mixing
- Type: physicochemical
- cond: aqueous TPGS composition, aqueous with cosolvent or surfactant or cyclodextrin, addition of water to molten TPGS, followed by addition of the drug; target concentration 180 mcg/ml
- Experimental: In one embodiment, the drug is dissolved in the surfactant, such as molten TPGS, and then added to water. For example, when fluticasone propionate is prepared this way with a target concentration of 180 mcg/ml, the amount solubilized by addition of molten TPGS containing the drug to water is about 180 mcg/mL. The amount solubilized by addition of water to molten TPGS, followed by addition of the drug, is only 77 mcg/mL. […]
readout.name: solubility (µg/mL)
Respond with the bare value in µg/mL.

// solubility lookup, key: CCC(=O)O[C@]1(C(=O)SCF)[C@H](C)C[C@H]2[C@@H]3C[C@H](F)C4=CC(=O)C=C[C@]4(C)[C@@]3(F)[C@@H](O)C[C@@]21C [fluticasone propionate]
77
